Assay: Fraction unbound in human
Assay type: ADME, organism-based
Details: in vivo
QUANTITY KIND: fraction unbound

compound="CC(c1nnc(-c2cccc(F)c2)o1)N1CC(C)(C)C(Oc2ccc(C#N)c(C(F)(F)F)c2)C1=O (racemic)" result_value=0.00825
compound=CC1(C)CN(CCC#N)C(=O)[C@@H]1Oc1ccc(C#N)c(C(F)(F)F)c1 result_value=0.226
compound=CC1(C)CN(Cc2nnc(-c3ccccc3)o2)C(=O)[C@@H]1Oc1ccc(C#N)c(C(F)(F)F)c1 result_value=0.0127
compound=C[C@@H](c1nnc(-c2ccccc2)o1)N1CC(C)(C)[C@@H](Oc2ccc(C#N)c(C(F)(F)F)c2)C1=O result_value=0.0181
